- PROTOCOL_NOTES: Plasma pharmacokinetics of minocycline, single ascending dose (SAD) phase, 1 hour intravenous infusion
- Set-up: species or system human (healthy adult subjects)
- RUN_CONDITIONS: human, in vivo; single 400 mg IV dose, mean, N=8
MEASUREMENT_TYPE: half-life (h)
Dear colleague, please return just the value in h, with no unit written.

Return value of half-life for input CN(C)c1ccc(O)c2c1C[C@H]1C[C@H]3[C@H](N(C)C)C(O)=C(C(N)=O)C(=O)[C@@]3(O)C(O)=C1C2=O , no commentary.
17.6

====

- PROTOCOL_NOTES: Plasma pharmacokinetics of minocycline, single ascending dose (SAD) phase, 1 hour intravenous infusion
- Design: species or system human (healthy adult subjects)
- RUN_CONDITIONS: human, in vivo, iv, 600 mg
- Procedure: This example describes outcomes among healthy adult subjects in a randomized, double-blind, placebo-controlled, single- and multiple ascending dose (SAD/MAD) study of 6 intravenous doses (cohorts) ranging from 100 mg to 600 mg of minocycline. […] Within each cohort, subjects received a single dose on Day 1, followed by a loading dose on Day 4, then 7 days of twice-daily dosing (Days 4-10), followed by a single dose on Day 11 as shown in Table 1. […]
MEASUREMENT_TYPE: AUC(0-inf) (ng·h/mL)
Give the number; ng·h/mL is assumed, so skip it.

Input CN(C)c1ccc(O)c2c1C[C@H]1C[C@H]3[C@H](N(C)C)C(O)=C(C(N)=O)C(=O)[C@@]3(O)C(O)=C1C2=O , output reported AUC(0-inf).
83000

====

- PROTOCOL_NOTES: Plasma pharmacokinetics of minocycline, single ascending dose (SAD) phase, 1 hour intravenous infusion
- Design: species or system human (healthy adult subjects)
- RUN_CONDITIONS: human, in vivo; single 200 mg IV dose, mean, N=8
MEASUREMENT_TYPE: half-life (h)
Your answer should be a plain number; it is taken to be in h.

Fill in reported half-life for this entry: CN(C)c1ccc(O)c2c1C[C@H]1C[C@H]3[C@H](N(C)C)C(O)=C(C(N)=O)C(=O)[C@@]3(O)C(O)=C1C2=O [minocycline]
13.7
